# pIC50 annotations
- experimental-protocol: Cytotoxicity against mouse spleen cells
- Assay type: cell-based
Units for pIC50: none; it is -log10 of a concentration expressed in mol/L.

Recorded pIC50, per entry:
[[record]]
molecular_string = "O=C(CCCCSc1nc(-c2ccc(-c3ccccc3)cc2)cc(=O)[nH]1)NO"
observed_property = "pIC50"
reported = 6.11

[[record]]
molecular_string = "COc1cc2c(NC3CCN(C(C)C)CC3)nc(C3CCCCC3)nc2cc1OCCCN1CCCC1"
observed_property = "pIC50"
reported = 5.84


Please find the next molecule below.
Item COc1ccc(CCN2CCC(Nc3nc(NCc4ccc(F)cc4)nc4cc(OC)c(OC)cc34)CC2)cc1 has what recorded pIC50?
6.10

====

- Test system: Plasmodium falciparum
- experimental-protocol: Antiplasmodial activity against asynchronous form of Plasmodium falciparum 3D7 infected in human erythrocytes assessed as parasite growth inhibition after 48 hrs by SYBR green1 staining based flow cytometry
- Format: functional, organism-based
- setup-conditions: 3D7, 48 h
pIC50: −log10 of the molar value.
observed-property: pIC50

[[record]]
compound = "NC1CC1c1ccc(NC(=O)c2ccc(-c3ccccc3)cc2)cc1 (stereo not drawn)"
system_under_test = "Plasmodium falciparum"
reported = "< 6.00"

[[record]]
compound = "CCCCCCCCCCCCCCC=C(C(=O)OCC)C(=O)OCC"
system_under_test = "Plasmodium falciparum"
reported = "< 6.00"


Please find the next compound below.
Item CC(C(=O)Nc1cccc(/N=C/c2c(O)ccc3ccccc23)c1)c1ccccc1 (stereo not drawn) [SALERMIDE] has what recorded pIC50?
< 6.00
